Exercise: for every item that follows, state its recorded polymerase ribozyme fitness (log ratio).
B1: TPR t1 (parent)
chain: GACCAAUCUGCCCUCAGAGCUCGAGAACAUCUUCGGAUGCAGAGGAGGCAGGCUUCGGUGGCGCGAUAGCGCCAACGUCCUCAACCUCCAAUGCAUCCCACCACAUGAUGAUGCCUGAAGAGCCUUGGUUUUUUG

Variants of: B1
Assay: polymerase ribozyme fitness, log enrichment relative to wild type (log ratio); higher = more active; in vitro selection for triplet polymerase activity
Numbers only.

Previously resolved entries follow.
* C8G C22G G47A C70U G77U | -4.84
* C28A A83U G110U | 1.66
* G47A C53U | -1.23
* C8G G36A G44A | -1.23
* C28U C79U | -1.61

State the recorded polymerase ribozyme fitness (log ratio) for every item in the following list.
1. A18U A24C A27U C40U G63C C89G U116A A121G
2. C72U G110A
3. G69U C99G
4. C15U G42C C76U U106A
5. G60U U112A
6. A26G G36U C82G

Result:
1. -5.65
2. -1.45
3. -6.24
4. -4.25
5. 1.6
6. -4.05

Each of the following entries comes with a recorded value; kindly state polymerase ribozyme fitness (log ratio) for each.
1. G44U G45C U78C
2. C12G C40A

Result:
-3.51
-1.14

For each entry beneath this line, provide reported polymerase ribozyme fitness (log ratio).
1. C85U G120A
2. C12U U38C G107A G117C C123A
3. A46U C114U

Result:
1: -0.267; 2: -5.15; 3: -2.76
